- target-under-test: OATP1B3 (Homo sapiens)
- Construct: expressed in transfected cells; host or cells: A431 cells
- assay-text: Pyranine transport inhibition in A431 cells overexpressing OATP1B3
- Assay type: cell-based
- assay-context: initial three-point screen (1, 10, 100 μM), category by concentration needed for 50% inhibition; pyranine 20 μM, 30 min, pH 5.5; read-out: IC50 (μM) OATP1B3
This listing pairs compounds with measured IC50.

O=C(O)c1cc(/C=C/c2c(-c3ccccc3)nc3ccccn23)nc2ccccc12 [C7] | 1 to 10 µM

Please examine the following record next.
Ask: // Input: CC(C)c1cc(C(=O)N2CCC(n3c(=O)[nH]c4ccccc43)CC2)c2cnn(C(C)C)c2n1 [C6] . Output its IC50 only.
Result: 1 to 10 µM

* * *

- target-under-test: OATP2B1 (Homo sapiens, UniProt O94956)
- Construct: expressed in transfected cells; host or cells: A431 cells
- Sequence (O94956 whole entry): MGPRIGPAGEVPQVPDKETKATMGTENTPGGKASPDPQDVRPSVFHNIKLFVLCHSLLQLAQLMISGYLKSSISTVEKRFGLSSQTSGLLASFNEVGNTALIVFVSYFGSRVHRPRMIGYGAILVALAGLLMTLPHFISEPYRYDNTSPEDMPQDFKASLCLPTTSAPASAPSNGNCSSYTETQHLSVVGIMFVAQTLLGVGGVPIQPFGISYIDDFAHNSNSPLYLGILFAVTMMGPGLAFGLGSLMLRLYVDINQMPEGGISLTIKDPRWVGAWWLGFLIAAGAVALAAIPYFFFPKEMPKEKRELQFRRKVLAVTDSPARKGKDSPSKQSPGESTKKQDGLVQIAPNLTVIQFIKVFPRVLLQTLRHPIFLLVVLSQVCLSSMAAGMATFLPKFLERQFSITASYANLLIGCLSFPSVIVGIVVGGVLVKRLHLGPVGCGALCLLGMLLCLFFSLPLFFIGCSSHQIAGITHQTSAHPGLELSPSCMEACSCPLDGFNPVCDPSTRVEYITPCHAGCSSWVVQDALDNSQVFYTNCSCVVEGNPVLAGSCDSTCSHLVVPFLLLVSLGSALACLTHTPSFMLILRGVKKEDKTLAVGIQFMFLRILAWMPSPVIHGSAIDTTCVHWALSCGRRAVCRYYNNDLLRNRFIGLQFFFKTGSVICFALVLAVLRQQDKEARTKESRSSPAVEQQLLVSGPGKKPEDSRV
- assay-text: Pyranine transport inhibition in A431 cells overexpressing OATP2B1
- Type: cell-based
- assay-context: IC50 (μM) OATP2B1, initial three-point screen (1, 10, 100 μM), category by concentration needed for 50% inhibition; pyranine 20 μM, 15 min, pH 5.5
This listing pairs molecules with measured IC50.

# count of solved cases: 5
Cc1ccc(NC(=O)C(Sc2nnc3n2CCCCC3)c2ccccc2)cc1Cl (stereo not drawn) [B2] | > 10 µM
Cc1cccn2cc(COC(=O)c3ccc4c(c3)C(=O)N(Cc3ccco3)C4=O)nc12 [C4] | > 10 µM
Cc1ccc(OCc2nnc(SCC(=O)N3CCN(C(=O)Nc4ccccc4)CC3)o2)cc1 [F4] | > 10 µM
O=C(COc1ccc([N+](=O)[O-])cc1)Nc1c(C(=O)N2CCOCC2)oc2ccccc12 [D7] | > 10 µM
O=C(Cc1ccccc1[N+](=O)[O-])NCC1CC2c3ccccc3C1c1ccccc12 (stereo not drawn) [B4] | 1 to 10 µM

Please examine the following record next.
Ask: // Input: O=C(NCc1ccccn1)c1ccc2c(c1)S(=O)(=O)c1ccccc1C2=O [B5] . Output its IC50 only.
Result: 1 to 10 µM

* * *

- target-under-test: OATP1B3 (Homo sapiens, UniProt Q9NPD5)
- Construct: expressed in transfected cells; host or cells: A431 cells
- Sequence (Q9NPD5 1-702): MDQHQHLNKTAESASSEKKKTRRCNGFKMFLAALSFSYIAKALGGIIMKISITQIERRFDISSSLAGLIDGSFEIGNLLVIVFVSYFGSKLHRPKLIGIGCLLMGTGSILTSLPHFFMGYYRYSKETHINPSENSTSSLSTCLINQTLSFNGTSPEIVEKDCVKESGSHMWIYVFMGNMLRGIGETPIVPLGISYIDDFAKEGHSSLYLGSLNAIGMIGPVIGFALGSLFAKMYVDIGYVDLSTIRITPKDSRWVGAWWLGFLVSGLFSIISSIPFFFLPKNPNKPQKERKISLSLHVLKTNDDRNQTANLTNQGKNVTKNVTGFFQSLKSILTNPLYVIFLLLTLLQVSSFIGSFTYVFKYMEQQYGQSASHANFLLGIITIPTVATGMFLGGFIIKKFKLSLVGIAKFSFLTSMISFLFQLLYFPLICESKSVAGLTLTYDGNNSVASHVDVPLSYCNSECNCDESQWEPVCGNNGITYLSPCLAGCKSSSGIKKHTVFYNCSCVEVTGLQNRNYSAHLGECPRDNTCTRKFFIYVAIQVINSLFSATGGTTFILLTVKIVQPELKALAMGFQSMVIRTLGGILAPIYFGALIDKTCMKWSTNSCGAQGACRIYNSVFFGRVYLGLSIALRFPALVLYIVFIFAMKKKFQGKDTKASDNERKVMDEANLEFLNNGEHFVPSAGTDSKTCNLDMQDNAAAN
- assay-text: Pyranine transport inhibition in A431 cells overexpressing OATP1B3
- Format: cell-based
- assay-context: full dose-response curve, eight concentrations, Hill1 fit; read-out: IC50 (μM) OATP1B3
This listing pairs compounds with measured IC50.
Answer with a number only, understood to be in µM.

O=C(NCc1cn(Cc2ccccc2)nc1-c1ccccc1)c1cc(F)cc(F)c1 | 7.5

Ask: // Input: Cn1c(=O)[nH]c(=O)c2c1nc(N/N=C1/C(=O)Nc3ccccc31)n2CCCc1ccccc1 . Output its IC50 only.
Result: 1.53

Ask: // Input: COC(=O)c1c(NC(=O)CN2C(=O)NC3(CCc4ccccc4C3)C2=O)sc2c1CCCCC2 (centres unmarked) . Output its IC50 only.
Result: 6.95

Ask: // Input: O=C(O)c1cc(/C=C/c2c(-c3ccccc3)nc3ccccn23)nc2ccccc12 . Output its IC50 only.
Result: 5.4

* * *

- target-under-test: OATP1B1 (Homo sapiens)
- Construct: expressed in transfected cells; host or cells: A431 cells
- Sequence (Q9Y6L6 whole entry): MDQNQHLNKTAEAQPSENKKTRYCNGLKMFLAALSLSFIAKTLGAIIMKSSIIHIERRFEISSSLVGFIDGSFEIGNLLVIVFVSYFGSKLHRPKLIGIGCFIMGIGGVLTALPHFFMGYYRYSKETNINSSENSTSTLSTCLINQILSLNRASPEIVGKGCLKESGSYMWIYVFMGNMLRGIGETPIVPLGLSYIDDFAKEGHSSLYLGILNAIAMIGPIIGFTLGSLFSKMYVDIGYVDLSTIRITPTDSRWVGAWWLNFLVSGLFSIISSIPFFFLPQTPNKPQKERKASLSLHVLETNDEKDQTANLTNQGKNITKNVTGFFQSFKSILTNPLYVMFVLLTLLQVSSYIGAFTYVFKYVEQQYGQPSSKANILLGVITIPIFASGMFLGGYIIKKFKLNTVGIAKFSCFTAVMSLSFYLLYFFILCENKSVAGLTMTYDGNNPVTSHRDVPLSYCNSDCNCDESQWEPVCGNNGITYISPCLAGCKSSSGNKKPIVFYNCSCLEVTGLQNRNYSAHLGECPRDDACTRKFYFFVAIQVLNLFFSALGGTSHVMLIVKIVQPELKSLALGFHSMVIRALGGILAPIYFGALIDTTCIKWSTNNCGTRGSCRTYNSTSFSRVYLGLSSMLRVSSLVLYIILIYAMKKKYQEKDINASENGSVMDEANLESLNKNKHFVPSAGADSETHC
- assay-text: Pyranine transport inhibition in A431 cells overexpressing OATP1B1
- Format: cell-based
- assay-context: initial three-point screen (1, 10, 100 μM), category by concentration needed for 50% inhibition; pyranine 10 μM, 15 min, pH 5.5; read-out: IC50 (μM) OATP1B1
recorded-endpoint: IC50

# count of solved cases: 8
O=C(Nc1ccccc1)N1CCCC(C(=O)N2CCN(Cc3nc4ccccc4s3)CC2)C1 (stereo not drawn) | > 10 µM
O=C(CSc1nc2cc(C(F)(F)F)ccc2n1Cc1ccccc1)c1ccc[nH]1 | > 10 µM
CC(OC(=O)C1CCN(S(=O)(=O)c2ccc3c(c2)OCCO3)CC1)C(=O)Nc1cccc(C#N)c1 (stereo not drawn) | 1 to 10 µM
CC(C)c1cc(C(=O)N2CCC(n3c(=O)[nH]c4ccccc43)CC2)c2cnn(C(C)C)c2n1 | 1 to 10 µM
O=C(CC12CC3CC(CC(C3)C1)C2)NCC(=O)N1CCN(S(=O)(=O)c2ccccc2F)CC1 | > 10 µM
Cc1cccc2nc(CSc3nc4sc5c(c4c(=O)n3Cc3ccccc3)CCCC5)cn12 | > 10 µM
Cn1c(=O)[nH]c(=O)c2c1nc(N/N=C1/C(=O)Nc3ccccc31)n2CCCc1ccccc1 | 1 to 10 µM
O=C(/C=C/c1cn(Cc2ccccc2)nn1)N1CCCC(c2nc3ccccc3s2)C1 (stereo not drawn) | > 10 µM

Please examine the following record next.
Ask: // Input: O=C(NCc1cn(Cc2ccccc2)nc1-c1ccccc1)c1cc(F)cc(F)c1 . Output its IC50 only.
Result: 1 to 10 µM

* * *

This listing pairs compounds with measured IC50.
- target-under-test: OATP2B1 (Homo sapiens)
- Construct: expressed in transfected cells; host or cells: A431 cells
- assay-text: Pyranine transport inhibition in A431 cells overexpressing OATP2B1
- Format: cell-based
- assay-context: initial three-point screen (1, 10, 100 μM), category by concentration needed for 50% inhibition; pyranine 20 μM, 15 min, pH 5.5; read-out: IC50 (μM) OATP2B1

Ask: // Input: N#Cc1c(NC(=O)COC(=O)CN2C(=O)NC3(CCc4ccccc43)C2=O)sc2c1CCCCC2 (stereo not shown) . Output its IC50 only.
Result: 1 to 10 µM

Ask: // Input: O=C(CC12CC3CC(CC(C3)C1)C2)NCC(=O)N1CCN(S(=O)(=O)c2ccccc2F)CC1 . Output its IC50 only.
Result: 1 to 10 µM

Ask: // Input: CCC(C)c1ccc(-n2c(SCC(=O)N3c4ccccc4CC3C)nc3ccccc3c2=O)cc1 (stereo not shown) . Output its IC50 only.
Result: 1 to 10 µM

* * *

- target-under-test: OATP1B3 (Homo sapiens, UniProt Q9NPD5)
- Construct: expressed in transfected cells; host or cells: A431 cells
- assay-text: Pyranine transport inhibition in A431 cells overexpressing OATP1B3
- Assay type: cell-based
- assay-context: initial three-point screen (1, 10, 100 μM), category by concentration needed for 50% inhibition; pyranine 20 μM, 30 min, pH 5.5; read-out: IC50 (μM) OATP1B3
recorded-endpoint: IC50

# count of solved cases: 5
O=C(Nc1ccccc1)c1ccccc1OCC(=O)N1CCN(C(=O)c2ccco2)CC1 | > 10 µM
CCn1cnc2c1c(=O)n(CC(=O)NC1CCCC(C)C1C)c(=O)n2Cc1ccccc1 (stereo not shown) | > 10 µM
O=C(CCc1ncc(-c2c(F)cccc2F)o1)N1CCN(S(=O)(=O)c2ccccc2F)CC1 | > 10 µM
COc1cc2c(cc1NC(=O)CN1C(=O)NC(Cc3c[nH]c4ccccc34)C1=O)oc1ccccc12 (stereo not shown) | 1 to 10 µM
O=C(CSc1nc2cc(C(F)(F)F)ccc2n1Cc1ccccc1)c1ccc[nH]1 | > 10 µM

Please examine the following record next.
Ask: Fill in: IC50 on OATP1B3 (Homo sapiens, UniProt Q9NPD5), entry CCc1ccccc1NC(=O)CN1CCN(C(=O)c2cc(-c3ccncc3)nc3ccccc23)CC1
Result: > 10 µM

* * *

- target-under-test: OATP1B3 (Homo sapiens)
- Construct: expressed in transfected cells; host or cells: A431 cells
- assay-text: Pyranine transport inhibition in A431 cells overexpressing OATP1B3
- Type: cell-based
- assay-context: initial three-point screen (1, 10, 100 μM), category by concentration needed for 50% inhibition; pyranine 20 μM, 30 min, pH 5.5; read-out: IC50 (μM) OATP1B3
recorded-endpoint: IC50

# count of solved cases: 2
Cn1c(=O)[nH]c(=O)c2c1nc(N/N=C1/C(=O)Nc3ccccc31)n2CCCc1ccccc1 [E3] | 1 to 10 µM
O=C1NC2(CCCc3sccc32)C(=O)N1CC(=O)N1c2ccccc2OCC1c1ccccc1 (stereo not drawn) [D2] | > 10 µM

Ask: // Input: O=C(OCC(=O)N(C1CCCCC1)C1CCCCC1)c1nn(-c2ccccc2)c(=O)c2ccccc12 [D5] . Output its IC50 only.
Result: > 10 µM
